// data source = patent US20160039895A1

This section presents binders with their documented koff values.
SYSTEM_NAME: T1, recombinant human VEGFR2 extracellular domain (human, UniProt P35968 20-764)
T1 construct: extracellular domain; also called KDR; Flk-1
TEST_DESCRIPTION: SPR (BIAcore 3000), VEGFR2 amine-coupled to CM5 chip, scVEGF as analyte, 1:1 model
The reply should be a number in s⁻¹, with the unit left off.

Query: Please report koff for the following binder: scVEGFmut (designed binder, scVEGF with chain 1 F17A, E64A and chain 2 I46A, I83A (VEGF121 numbering); Soluble protein from P. pastoris with C-terminal hexahistidine tag, with or without N-terminal FLAG tag) YVEVVKAMDVYQRSYCHPIETLVDIFQEYPDEIEYIFKPSCVPLMRCGGCCNDAGLECVPTEESNITMQIMRIKPHQGQHIGEMSFLQHNKCECRPKKDGSTSGSGKSSEGKGEVVKFMDVYQRSYCHPIETLVDIFQEYPDEIEYAFKPSCVPLMRCGGCCNDEGLECVPTEESNITMQIMRAKPHQGQHIGEMSFLQHNKCECRPKKDTR
Result: 0.00146

Query: Fill in reported koff for this entry: scVEGF-mJ (designed binder, Soluble protein with C-terminal hexahistidine tag, with or without N-terminal FLAG tag (tags not included in the parts); also called scVEGFmut-J) EIVKARDVYQRSYCHPIETLVDILQEYPDEIEYIFKPSCVPLMRCGGCCNDAGLECVPTEESNITMQIMRIKPYQGHHIGEMSFLQHNKCECRPKKDGSTSGSGKSSEGKGEVVKFMDVYQRSYCHPIETLVDIFQEYPDEIEYAFKPSCVPLMRCGGCCNNEGLECVPTEESNITMQIMRAKPHQGQHTGEMSFLQHNKCECRPKKD
Result: 0.0003

Query: Retrieve koff measured for scVEGFwt (ligand, also called wild-type scVEGF; single-chain VEGF) YVEVVKFMDVYQRSYCHPIETLVDIFQEYPDEIEYIFKPSCVPLMRCGGCCNDEGLECVPTEESNITMQIMRIKPHQGQHIGEMSFLQHNKCECRPKKDGSTSGSGKSSEGKGEVVKFMDVYQRSYCHPIETLVDIFQEYPDEIEYIFKPSCVPLMRCGGCCNDEGLECVPTEESNITMQIMRIKPHQGQHIGEMSFLQHNKCECRPKKDTR and print it.
Result: 0.0007
